- target_desc: AgSla1-D3
- protocol_text: SPOT peptide array binding signal intensity (averaged, normalized) (arbitrary units (background-subtracted, floor 0; scale differs between SH3 domains)); higher = stronger binding of the SH3 domain to the peptide
Each entry below lists one item and its recorded SPOT peptide array binding signal intensity value.
measured_property: SPOT peptide array binding signal intensity

{"binder": "LKRITSPPLPPRADS", "limit_operator": "=", "result_number": 4.75}
{"binder": "VDFTLPPPPPPPGLD", "limit_operator": "=", "result_number": 0.5}
{"binder": "VGFRLALKFPSRITG", "limit_operator": "=", "result_number": 31}
{"binder": "VPKEPAPAPPPEPDM", "limit_operator": "=", "result_number": 0.75}
{"binder": "VFQFQMPTTPISTKM", "limit_operator": "=", "result_number": 3}
{"binder": "SHRLWLYAAPKRPKT", "limit_operator": "=", "result_number": 11}
{"binder": "VTHRLRISIPGITGR", "limit_operator": "=", "result_number": 3}
{"binder": "DDEDVPPQLPTRTKS", "limit_operator": "≤", "result_number": 0}
{"binder": "SNRRPVPRRPSQPLN", "limit_operator": "=", "result_number": 3}
{"binder": "NGRRRPKFRVQLSGN", "limit_operator": "=", "result_number": 13}
{"binder": "VPVAPPPPPASLGQS", "limit_operator": "=", "result_number": 1}
{"binder": "PHNPSPFFPPPDFND", "limit_operator": "≤", "result_number": 0}
{"binder": "NHSRSLFSLPGNQQS", "limit_operator": "=", "result_number": 13.5}
{"binder": "RLPAPPPPPRRGPAP", "limit_operator": "=", "result_number": 10}
{"binder": "TYNRTAFQIPGDQSI", "limit_operator": "=", "result_number": 1}
